Data origin, for the record: ChEMBL document CHEMBL1157209

study.target: Adenosine receptor A1 (Bos taurus)
Sequence (P28190 whole entry): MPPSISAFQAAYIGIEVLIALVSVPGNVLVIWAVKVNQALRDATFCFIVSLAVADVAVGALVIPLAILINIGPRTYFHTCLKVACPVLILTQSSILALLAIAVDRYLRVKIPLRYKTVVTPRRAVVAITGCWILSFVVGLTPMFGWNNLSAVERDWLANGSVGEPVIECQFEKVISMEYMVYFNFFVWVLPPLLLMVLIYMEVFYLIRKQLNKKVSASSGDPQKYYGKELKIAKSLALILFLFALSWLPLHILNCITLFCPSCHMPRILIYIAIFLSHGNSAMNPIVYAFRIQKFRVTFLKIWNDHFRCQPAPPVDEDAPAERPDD
Consider the cut-off 3 nM. If the recorded Ki is strictly smaller, the label is met; if not, the label is not met.

Field: example entries. Status: answers known.
[[record]]
compound = "OC1CCC(Nc2nc(-c3ccccc3)nc3c2nnn3Cc2ccccc2)CC1 (stereo not given)"
study_target = "Adenosine receptor A1 (Bos taurus)"
group = "met"

[[record]]
compound = "COc1ccc(C(=O)Nc2nc(-c3ccccc3)nc3c2nnn3Cc2ccccc2)cc1"
study_target = "Adenosine receptor A1 (Bos taurus)"
group = "not met"

[[record]]
compound = "O[C@H]1CCCC[C@@H]1Nc1nc(-c2ccccc2)nc2c1nnn2Cc1ccccc1"
study_target = "Adenosine receptor A1 (Bos taurus)"
group = "not met"

[[record]]
compound = "COc1ccc(C(=O)Nc2nc(-c3ccccc3)nc3c2nnn3Cc2ccccc2Cl)cc1"
study_target = "Adenosine receptor A1 (Bos taurus)"
group = "not met"


# ---- query compound ----
**Query** # check: Ki < 3 nM for OC1CCC(Nc2nc(-c3ccccc3)nc3c2nnn3Cc2ccccc2Cl)CC1 (stereo not given)
**Result** not met
